Values from paper PMC8765781

System: wild-type ZIKV (Ugandan MR766 strain) in Vero cells
Test: ZIKV cytopathic effect (CPE) inhibition qHTS assay, CellTiter-Glo readout
Type: cell-based, Zika virus
Settings: Zika virus, Vero, read-out: Log AC50 (M) (converted)
ATTRIBUTE MEASURED: AC50 (M)
Give the value in M but do not write M after it.

Entry Nc1ccn([C@@H]2O[C@H](CO)[C@@H](O)C2(F)F)c(=O)n1 [NCGC00168784-08, gemcitabine, reference compound] ; AC50 = 9.2e-06

Measured AC50, C[C@@H]1CCC2C(C)(C)[C@H](O)CC[C@]2(C)[C@@]12Cc1c(O)cc3c(c1O2)CN(CCO)C3=O (stereo partly shown) : 8.93e-06

CC1CCC2C(C)(C)C(O)CCC2(C)C12Cc1c(O)cc3c(c1O2)CNC3=N (stereo not shown) has a reported AC50 of 5.08e-07

Sample O=C(O)Cc1cc(I)c(Oc2ccc(O)c(I)c2)c(I)c1 ; AC50 observed: 2.91e-05

Value of AC50 reported for the compound OC1C=C2C3CN(Cc4cc5c(cc43)OCO5)C2CC1O (stereo not shown) is 2.59e-05

Measured AC50 of CO[C@H]1/C=C/C=C/C=C/C[C@H](OC(=O)[C@@H](C)NC(=O)C2CCCCC2)[C@H](C)[C@@H](O)/C(C)=C\CCc2cc(O)cc(c2)NC(=O)C1 : 5.44e-06

====

Test system: wild-type ZIKV (Ugandan MR766 strain) in Vero cells
Test: ZIKV cytopathic effect (CPE) inhibition qHTS assay, CellTiter-Glo readout
Type: cell-based, Zika virus
ATTRIBUTE MEASURED: Efficacy
Answer using only a numeral; do not append any unit.

C=C(C)[C@@]12O[C@@H]1[C@@]1(C)C(=CC2=O)CC[C@@H](OC(C)=O)[C@@H]1C [NCGC00380955-01, 3-Acetyl-13-deoxyphomenone]	-61.612
C/C=C(\C)C(=O)O[C@H]1[C@H](OC(C)=O)[C@]2(CO)[C@H](O)[C@H](O)[C@]3(C)C(=CCC4[C@@]5(C)CC[C@H](O[C@@H]6O[C@H](C(=O)O)[C@@H](O)[C@H](O[C@@H]7OC[C@H](O)[C@H](O[C@@H]8OC[C@H](O)[C@H](O)[C@H]8O)[C@H]7O)[C@H]6O[C@@H]6O[C@H](CO)[C@@H](O)[C@H](O)[C@H]6O)C(C)(C)C5CC[C@]43C)[C@@H]2CC1(C)C (some centres unmarked) [NCGC00381072-01]	-30.676
COc1cc2c(cc1O)C1(Cc3ccc4c(c3C1O)OCO4)[N+](C)([O-])CC2 (centres unmarked) [NCGC00385471-01]	-50.391
CC[C@H](CC#N)OC(=O)N[C@@H](C)c1cccc(NC(=O)Nc2ccc(-c3cnco3)c(OC)c2)c1 [NCGC00345803-05]	-31.6

// next item, Efficacy requested
Item: C/C=C(/C)C(=O)O[C@H]1[C@@H]2[C@H](C)C(=O)O[C@@H]2C[C@@H](C)[C@@H]2C=CC(=O)[C@]21C [NCGC00385048-01] | System: wild-type ZIKV (Ugandan MR766 strain) in Vero cells | Efficacy: -20.801

====

Reported values: Log AC50 (M) for Vero cells, one per item.
Give the value; after it, write the unit.

The recorded Log AC50 (M) with Vero cells for CCCN(CC1CC1)c1nc(C)nc(Nc2c(Cl)cc(Cl)cc2Cl)c1Cl was -4.4327 M

The value of Log AC50 (M) recorded for C[C@@H]1C[C@H]2C3CCC4=CC(=O)C=C[C@@]4(C)[C@@]3(Cl)[C@@H](O)CC2(C)[C@@]1(OC(=O)c1ccco1)C(=O)CCl (stereo partly drawn) when tested on Vero cells reads -4.9827 M

Readout Log AC50 (M) for C/C=C1\NC(=O)[C@H]2CSSCC/C=C\[C@H](CC(=O)N[C@H](C(C)C)C(=O)N2)OC(=O)[C@H](C(C)C)NC1=O , test system Vero cells, was -6.6327 M

====

Test: in vitro
Details: human
Entries and their CC50 at 24 h values follow.
Answer with a number only, understood to be in µM.

Use the examples below as a reference point.
Nc1ccn([C@@H]2O[C@H](CO)[C@@H](O)C2(F)F)c(=O)n1 [NCGC00168784-08, gemcitabine, reference compound]	16.3
Cc1[nH]c2ccccc2c1C1=C(NCCc2ccc(F)cc2)C(=O)N(C)C1=O [NCGC00386352-05]	17.8
CNC(=O)c1cc(Oc2ccc(NC(=O)Nc3cc(C(C)(C)C)nn3-c3ccc4ncccc4c3)c(F)c2)ccn1 [NCGC00263172-09]	12.1

Turning now to a further record.
C=C1CCC2[C@](C)(CCC[C@]2(C)C(=O)O)[C@H]1CC/C(C)=C/C(=O)OC (stereo partly drawn) [NCGC00168922-02] has a reported CC50 at 24 h of 13.3

====

Documented Emax across a set of compounds
Tested on: wild-type ZIKV (Ugandan MR766 strain) in Vero cells
Test: ZIKV cytopathic effect (CPE) inhibition qHTS assay, CellTiter-Glo readout
Format: cell-based, Zika virus
Conditions: Zika virus, Vero, read-out: Max response
Kindly answer with a numeric value in %, unit omitted.

Examples with answers:
C=C1C(=O)O[C@@H]2C[C@H](C)[C@@H]3CC(=O)C(C)=C3C[C@H]12	-89.7
CCOC(=O)C1=C(N)Oc2ccc(Br)cc2C1C(C#N)C(=O)OCC (centres unmarked)	-2.2
C=C(C)C1Cc2c(ccc3c2OCC(c2ccc(O)cc2O)C3)O1 (centres unmarked)	-30.5

# Emax (compound: C=C(C(=O)O)[C@@H]1CC[C@@]2(C)CCC[C@@](C)(O)[C@@H]2C1 ) is -0.865

Emax in this record for C/C(=C\CCC(C)CCO)C(=O)OC1(C)CCC2C(C(=O)O)=COC(OC3OC(CO)C(O)C(O)C3O)C21 (centres unmarked) : -7.99

====

Tested on: ZIKV-RLuc (Cambodian strain FSS13025)
Assay: microbe, parasite or virus in culture
Assay type: cell-based, Zika virus
ATTRIBUTE MEASURED: log10(AC50) (log10 of the value in µM)
Values below are the log10 of the recorded AC50, with µM as the unit.

Solved cases (3 shown):
CC(C)c1cc(-c2n[nH]c(=O)n2-c2ccc3c(ccn3C)c2)c(O)cc1O	0.97
O=C(Nc1ccc([N+](=O)[O-])cc1Cl)c1cc(Cl)ccc1O [NCGC00015735-11]	-0.44
NC1(c2ccc(-c3nc4ccn5c(=O)[nH]nc5c4cc3-c3ccccc3)cc2)CCC1	1.32

Record CC1(C)CCC(C)(C)c2cc(NC(=O)c3ccc(C(=O)O)cc3)ccc21 . Reported log10(AC50): 1.57

Form field log10(AC50), entry O=C(Nc1ccc([N+](=O)[O-])cc1Cl)c1cc(Cl)ccc1O [NCGC00015735-12] : 0.02

====

Test system: Vero cells
ATTRIBUTE MEASURED: Log AC50 (M)
API: value field is a number in M; no unit string.

CC(=O)c1c(C)c2cnc(Nc3ccc(N4CCNCC4)cn3)nc2n(C2CCCC2)c1=O	-4.7827

Bench note, Vero cells: CN1CCCC(CC2c3ccccc3Sc3ccccc32)C1.Cl (stereo not shown) , Log AC50 (M) reads -4.4327

Summary line: Cc1ccc(C(N)=O)cc1Nc1nccc(-c2cn(C(C)C)c3cnccc23)n1 , Vero cells, reported Log AC50 (M) = -5.1327

Log AC50 (M) on Vero cells for CCN(CC)Cc1ccc2cc(COC(=O)Nc3ccc(C(=O)NO)cc3)ccc2c1 is -5.5827

Record C[C@@H]1O[C@@H](O[C@H]2[C@H](OC(=O)[C@]34CCC(C)(C)C[C@H]3C3=CCC5[C@@]6(C)C[C@H](O)[C@H](O[C@@H]7O[C@H](C(=O)O)[C@@H](O)[C@H](O)[C@H]7O)[C@@](C)(CO)C6[C@H](O)C[C@@]5(C)[C@]3(C)CC4)OC[C@H](O)[C@@H]2O)[C@H](O)[C@H](O)[C@H]1O[C@@H]1OC[C@@H](O)[C@H](O[C@@H]2OC[C@](O)(CO)[C@H]2O)[C@H]1O (stereo partly shown) ; system Vero cells; Log AC50 (M) = -4.9345

Simply: NC(=O)C1(N2CCCCC2)CCN(CCCN2c3ccccc3CCc3ccc(Cl)cc32)CC1 , Vero cells, Log AC50 (M) = -4.5827

Form field, Log AC50 (M) with Vero cells, item CC(=O)O/N=C1\C(=O)N(Cc2cc(Cl)ccc2Cl)c2ccc(Cl)cc21 : -4.7827

For O=c1cc(-c2ccc(O)c(O)c2)oc2c(C3O[C@H](CO)[C@H](O)[C@H](O)[C@H]3O)c(O)cc(O)c12 (stereo partly shown) on Vero cells, measured Log AC50 (M) was -4.7327

Reading of Log AC50 (M) for CC[C@@H]1C(=O)N(C)c2cnc(Nc3ccc(C(=O)NC4CCN(C)CC4)cc3OC)nc2N1C1CCCC1 with Vero cells: -5.6327

Measured on Vero cells, CCCCC/C=C/C(=O)CCc1ccc(O)c(OC)c1 has a documented Log AC50 (M) of -4.7327

Entry C[S+]([O-])c1ccc(-c2nc(-c3ccc(F)cc3)c(-c3ccncc3)[nH]2)cc1 (stereo not shown) , Vero cells data, Log AC50 (M) value: -4.3199

Tested on Vero cells: Oc1c(Cl)cc(Cl)c(Cl)c1Cc1c(O)c(Cl)cc(Cl)c1Cl . Observed Log AC50 (M): -5.6327

// compound ClC1=C(Cl)[C@]2(Cl)[C@@H]3[C@@H]4C[C@@H]([C@H]5O[C@@H]45)[C@@H]3[C@@]1(Cl)C2(Cl)Cl , assay Vero cells, Log AC50 (M) value: -4.1199

Lab note: compound CCCCCCCCCCC(C)(C)C(=O)Nc1c(OC)cc(OC)cc1OC tested on Vero cells; recorded Log AC50 (M) was -4.4327

Value sought: Log AC50 (M), system Vero cells, item CCC(=C/[C@H](C)C/C=C/C(C)=C/[C@@H](C)C(=O)[C@@H](C)[C@H](O)[C@@H](C)C/C(C)=C/C(=O)O)/C=C/[C@@H]1OC(=O)C=C[C@@H]1C . Result: -8.3224

Form field, Log AC50 (M) with Vero cells, item CN1CCN(CCCN2c3ccccc3Sc3ccc(C(F)(F)F)cc32)CC1 : -4.6327

Value (Log AC50 (M), Vero cells) for record C[C@@H]1CC[C@@]2(OC1)O[C@H]1C[C@H]3[C@@H]4CC=C5C[C@@H](O[C@@H]6O[C@H](CO)[C@@H](O[C@@H]7O[C@@H](C)[C@H](O)[C@@H](O)[C@H]7O)[C@H](O)[C@H]6O[C@@H]6O[C@@H](C)[C@H](O)[C@@H](O)[C@H]6O)CC[C@]5(C)[C@H]4CC[C@]3(C)[C@H]1[C@@H]2C = -5.4827
